The entries below are paired with their reported TGI.
Test system: BT-549 breast
Test: NCI tumour cell line growth inhibition, 48 h
Value kind: TGI

> print(dat)
                                   compound   reading
1  CC1CCCc2c(CC3CC(=O)NC(=O)C3)nc(N)nc21 (centres undefined)  > 100 µM
2   Cc1cccc(Cc2cnc(NC(=O)/C=C/c3ccco3)s2)c1  > 100 µM
3  CCOC(=O)CCC(NC(=O)c1ccc(Nc2nc3cc(N)cc(N)c3nc2-c2ccccc2)cc1)C(=O)OCC (centres undefined)  > 100 µM
4   Cc1cc(S(=O)(=O)Nc2n[nH]c(N)n2)c(S)cc1Cl   > 10 µM
5       COc1ccc(C2=C(N)c3cc(OC)ccc3C2=O)cc1  > 100 µM
6  COc1ccc(C2CCc3c(cnc4nc(N)nc(N)c34)C2)cc1 (centres undefined)  > 100 µM
7                       Cc1cc(C)c(N)c(CO)c1  > 100 µM
8  O=C(Nc1ccccc1C(=O)O)C(=Cc1ccccc1O)NC(=O)c1ccccc1  > 100 µM
9  CCCCCC(=O)OCC1(CO)C/C(=C/CC(C(C)C)C(C)C)C(=O)O1 (centres undefined)   > 75 µM

---

Tested on: MDA-MB-435
Assay: NCI tumour cell line growth inhibition, 48 h
The entries below are paired with their reported TGI.
Value kind: TGI

> print(dat)
                                   compound  experimental.system   reading
1                    Cc1nc2ccccc2nc1N1CCCC1           MDA-MB-435  > 100 µM
2  CCn1c(-c2nonc2N)nc2c(C#CC(C)(C)O)ncc(OCC3CCNCC3)c21           MDA-MB-435   > 25 µM
3  COc1ccc(C2CCc3c(cnc4nc(N)nc(N)c34)C2)cc1 (stereo not drawn)           MDA-MB-435  > 100 µM

---

Test system: TK-10 renal
Assay: NCI tumour cell line growth inhibition, 48 h
The entries below are paired with their reported TGI.
Value kind: TGI

> print(dat)
                                    molecule   reading
 1      N#Cc1nc(-c2ccccn2)c(-c2ccccn2)nc1C#N   17.3 µM
 2                  NC(=O)c1nnc2c(F)cccc2c1N  > 100 µM
 3  COC(=O)C1=C(C)NC(C)=C(C(=O)OC)C1c1ccccc1[N+](=O)[O-]  > 100 µM
 4  COc1cc2cc(C(=O)N3C[C@H](CCl)c4c3cc(O)c3ccccc43)[nH]c2c(OC)c1OC  > 100 µM
 5  CC(C)C(NCc1c2ccccc2nc2ccccc12)C(=O)O (stereo not drawn)  > 100 µM
 6  O=C1CSC(c2cc3cc(Br)ccc3nc2Cl)N1c1ccc(F)c(Cl)c1 (stereo not drawn)   > 50 µM
 7     Cc1nc2cccc(F)c2c(=O)n1-c1nnc(C2CC2)s1   > 10 µM
 8  COc1ccc(OC)c([N+](=O)[O-])c1-c1nc2sc(C)cn2c1/C=N/N=C(N)N   43.3 µM
 9        CCN(CC)c1ccc(/C=C2/NC(=O)NC2=O)cc1  > 100 µM
10             O=C(O)CNCc1c2ccccc2nc2ccccc12  > 100 µM
11  CC[C@@]1(O)C(=O)N(CCN(C)C)Cc2c1cc1n(c2=O)Cc2cc3ccccc3nc2-1  > 100 µM
12  CCN(CC)Cc1cc(Nc2c3ccc(Cl)cc3nc3c(C)cccc23)ccc1O   5.59 µM
13   CCN(CC)CCn1nc2c3c(cccc3c1=O)-c1ccccc1-2   34.4 µM
